List of Stability values.
State just the number; it will be interpreted in min.

The cases that follow already have their Stability on record.
compound | val
Clc1ccc2ncc(-c3cccc(NC4CNC4)n3)n2c1 | 13
c1cc(N[C@@H]2CCNC2)nc(-c2cnc3ccc(-c4cn[nH]c4)cn23)c1 | 5.7
c1cc(NC2CCNC2)nc(-c2cnc3ccc(-c4cn[nH]c4)cn23)c1 (stereo not drawn) | 7.6
c1cc(N[C@H]2CCNC2)nc(-c2cnc3ccc(-c4cn[nH]c4)cn23)c1 | 6.7

Here is another compound to look at.
stdin: Value lookup for Stability; key = CN(c1cccc(-c2cnc3ccc(Cl)cn23)n1)C1CCNCC1
stdout: 9.0

---

target.entity: IRAK1 (Homo sapiens (Human))
test.details: biochemical
experimental.setup: IC50 IRAK1, 10-dose IC50 mode, 10 μM ATP
property: pIC50
Entry type: numeric. Quantity: pIC50, the -log10 of concentration in molar units.

stdin: Which pIC50 reading was recorded for the compound COc1cc2ncc(-c3cccc(NC4CCNC4)n3)n2cc1-c1cn[nH]c1 (stereo not shown) ?
stdout: 8.27

---

test.details: physchem
experimental.setup: pH 7.4, aqueous buffer, kinetic from dmso stock
property: solubility kinetic (µM)
Record the value in µM, omitting the unit from your answer.

stdin: Request the reported solubility kinetic associated with COc1cc2ncc(-c3cccc(NC4CCNC4)n3)n2cc1-c1cccnc1 (centres unmarked)
stdout: 29

---

test.details: physchem
experimental.setup: pH 7.4, aqueous buffer, kinetic from dmso stock
Listing of entries alongside the reported solubility.

molecule | solubility
c1cc(NC2CNC2)nc(-c2cnc3ccc(-c4cn[nH]c4)cn23)c1 [Compound I-45] | > 49 µg/mL

stdin: Query: solubility; subject: Cc1ccc(-c2cnc3ccc(Cl)cn23)nc1NC1CNC1 [Compound I-48]
stdout: > 46 µg/mL

stdin: Need solubility of Cc1ccn2c(-c3cccc(NC4CNC4)n3)cnc2c1 [Compound I-61] , thanks.
stdout: > 41 µg/mL

stdin: So what does the record say about solubility for COc1cc2ncc(-c3cccc(NC4CCNC4)n3)n2cc1-c1nnn[nH]1 (centres unmarked) [Compound I-38] ?
stdout: > 56 µg/mL

---

Recorded solubility for the following molecules
test.details: physchem
experimental.setup: pH 7.4, aqueous buffer, kinetic from dmso stock

// known answers, use as guide
molecule | val
c1cc(NC2CCNC2)nc(-c2cnc3ccc(-c4cn[nH]c4)cn23)c1 (stereo not shown) [Compound I-54] | > 51 µg/mL
Clc1ccn2c(-c3cccc(NC4CNC4)n3)cnc2c1 [Compound I-63] | > 44 µg/mL
C#Cc1cn2c(-c3cccc(NC4CCNC4)n3)cnc2cc1OC (stereo not shown) [Compound I-68] | > 49 µg/mL
COc1cc2ncc(-c3cccc(NC4CCNC4)n3)n2cc1-c1c(C)noc1C (stereo not shown) [Compound I-28] | > 60 µg/mL

stdin: Name the reported solubility value associated with the molecule Cc1ccc(NC2CNC2)nc1-c1cnc2ccc(Cl)cn12 [Compound I-49]
stdout: > 46 µg/mL

stdin: Data request, read-out solubility, for COc1cc(NC2CNC2)nc(-c2cnc3ccc(Cl)cn23)c1 [Compound I-67]
stdout: > 49 µg/mL

stdin: State the recorded solubility for this entry: Clc1ccc2ncc(-c3cccc(NC4CCCNC4)n3)n2c1 (stereo not shown) [Compound I-17]
stdout: > 48 µg/mL

stdin: I have this molecule here, Clc1ccc2ncc(-c3cccc(NC4CCNCC4)n3)n2c1 [Compound I-2] , and I need its recorded solubility.
stdout: > 48 µg/mL

stdin: I'd like to know its solubility. The molecule in question is Cc1cc(NC2CNC2)nc(-c2cnc3ccc(Cl)cn23)c1 [Compound I-55]
stdout: > 46 µg/mL

stdin: Item Clc1ccc2ncc(-c3cccc(NC4CNC4)n3)n2c1 [Compound I-15] has what recorded solubility?
stdout: > 44 µg/mL

stdin: Could you tell me which solubility is on file for CN(c1cccc(-c2cnc3ccc(Cl)cn23)n1)C1CCNCC1 [Compound I-51] ?
stdout: > 50 µg/mL

stdin: Endpoint output: solubility of COc1cc2ncc(-c3cccc(NC4CCNC4)n3)n2cc1-c1c(C)n[nH]c1C (stereo not shown) [Compound I-25] . Value?
stdout: > 60 µg/mL

---

test.details: physchem
experimental.setup: pH 7.4, aqueous buffer, kinetic from dmso stock
property: solubility

compound | property | val
Fc1cc(F)c(-c2cnc3ccc(Cl)cn23)nc1NC1CNC1 [Compound I-47] | solubility | > 50 µg/mL

stdin: Fill in: solubility of c1cc(NC2CCNC2)nc(-c2cnc3cc(OCCN4CCOCC4)c(-c4cn[nH]c4)cn23)c1 (stereo not shown) [Compound I-41] is ___
stdout: > 70 µg/mL

stdin: Returns the measured solubility for the input compound. Input: CCN1CCN(c2ccc3ncc(-c4cccc(NC5CNC5)n4)n3c2)CC1 [Compound I-64]
stdout: > 56 µg/mL

stdin: Looking for the measured solubility of Clc1ccc2ncc(-c3cccc(NC4CCNC4)n3)n2c1 (stereo not shown) [Compound I-16] , can you help?
stdout: > 46 µg/mL
